Measured combination Emax, listed per entry.
- System: EFO-21 (Ovarian Carcinoma)
- Run Description: combination Emax (second highest fraction inhibited in the dose matrix, 72 h); higher = more inhibition; extreme values may be limits of the assay
Give the value as a plain number.

Example entries and their recorded answers appear below.
CN(CCO)CC[C@H](CSc1ccccc1)Nc1ccc(S(=O)(=O)NC(=O)c2ccc(N3CCC([C@@H](O)c4ccccc4-c4ccc(Cl)cc4)CC3)cc2)cc1S(=O)(=O)C(F)(F)F [AZD4320] + C[C@@H]1COCCN1C2=NC(=NC(=C2)C3(CC3)[S@](=N)(=O)C)C4=C5C=CNC5=NC=C4 [AZD6738] (first compound max 1 µM, 7x7, partner max 10 µM) : 0.433
CC1(C)CCC(CN2CCN(c3ccc(C(=O)NS(=O)(=O)c4ccc(NCC5CCOCC5)c([N+](=O)[O-])c4)c(Oc4cnc5[nH]ccc5c4)c3)CC2)=C(c2ccc(Cl)cc2)C1 [Venetoclax] + C1CN(CCC1(C(=O)N[C@@H](CCO)C2=CC=C(C=C2)Cl)N)C3=NC=NC4=C3C=CN4 [Capivasertib] (first compound max 1 µM, 7x7, partner max 3 µM) : 0.222

Lab note: measured combination Emax of O=C(c1cc(Cc2n[nH]c(=O)c3ccccc23)ccc1F)N1CCN(C(=O)C2CC2)CC1 [Olaparib] + COc1nnc2ccc(N3CCC(c4ccc(OCCN5CCN(C)C(=O)[C@H]5C)cc4)CC3)nn12 [AZD5153] (first compound max 10 µM, 7x7, partner max 1 µM) was 0.353

---

- Tested on: A4-Fuk (B-Lymphoblastic Leukemia);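 further: after 72 h of two-drug dosing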
- Run Description: Bliss excess, mean over the matrix (fraction); higher = more synergy
Binary classification by Bliss excess, with -0.008 as an inclusive lower bound for t; all other cases are f.

O=C(c1cc(Cc2n[nH]c(=O)c3ccccc23)ccc1F)N1CCN(C(=O)C2CC2)CC1 [Olaparib] + CN(CC[C@H](CSC1=CC=CC=C1)NC2=C(C=C(C=C2)S(=O)(=O)NC(=O)C3=CC=C(C=C3)N4CCC(CC4)[C@H](C5=CC=CC=C5C6=CC=C(C=C6)Cl)O)S(=O)(=O)C(F)(F)F)CCO [AZD4320] (first compound max 10 µM, 7x7, partner max 1 µM) : f

query: Item O=C(c1cc(Cc2n[nH]c(=O)c3ccccc23)ccc1F)N1CCN(C(=O)C2CC2)CC1 [Olaparib] + Cc1c2c(nn1C)CSCc1cc(n(C)n1)CSc1cc(c3ccccc3c1)OCCCc1c(C(=O)O)n(C)c3c-2c(Cl)ccc13 [AZD5991] (first compound max 10 µM, 7x7, partner max 1 µM) with Bliss excess of -0.008 or above?
result: f

query: Item COc1cccc(OCCCN)c1-c1cc(Nc2cnc(C#N)cn2)n[nH]1 [Prexasertib] + CCc1c2c(nc3ccc(O)cc13)-c1cc3c(c(=O)n1C2)COC(=O)[C@]3(O)CC [SN-38] (first compound max 1 µM, 7x7, partner max 0.3 µM) with Bliss excess of -0.008 or above?
result: f

query: Item N#Cc1cnc(Nc2cc(NC[C@H]3CNCCO3)c(C(F)(F)F)cn2)cn1 [SRA737] + C=CCn1c(=O)c2cnc(Nc3ccc(N4CCN(C)CC4)cc3)nc2n1-c1cccc(C(C)(C)O)n1 [AZD1775] (first compound max 10 µM, partner max 1 µM) with Bliss excess of -0.008 or above?
result: t

query: Item CC1(C)CCC(CN2CCN(c3ccc(C(=O)NS(=O)(=O)c4ccc(NCC5CCOCC5)c([N+](=O)[O-])c4)c(Oc4cnc5[nH]ccc5c4)c3)CC2)=C(c2ccc(Cl)cc2)C1 [Venetoclax] + C[C@@H](Nc1cc(F)cc(F)c1)c1cc(C(=O)N(C)C)cc2c(=O)cc(N3CCOCC3)oc12 [AZD8186] (first compound max 1 µM, 7x7, partner max 3 µM) with Bliss excess of -0.008 or above?
result: t
